# Experimental system: Orexin/Hypocretin receptor type 1 (Homo sapiens)
# Sequence (O43613 whole entry): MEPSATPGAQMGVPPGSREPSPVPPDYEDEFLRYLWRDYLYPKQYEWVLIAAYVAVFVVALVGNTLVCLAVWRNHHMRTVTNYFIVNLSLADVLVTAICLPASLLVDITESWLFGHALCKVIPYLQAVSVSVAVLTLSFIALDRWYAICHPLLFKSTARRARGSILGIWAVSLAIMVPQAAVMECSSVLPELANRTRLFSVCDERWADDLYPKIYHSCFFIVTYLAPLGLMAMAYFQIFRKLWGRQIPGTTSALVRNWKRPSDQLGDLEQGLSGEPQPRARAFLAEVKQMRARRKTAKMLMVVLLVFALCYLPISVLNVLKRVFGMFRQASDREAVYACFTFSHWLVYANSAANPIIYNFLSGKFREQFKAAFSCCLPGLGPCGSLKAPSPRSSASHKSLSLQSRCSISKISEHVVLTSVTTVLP
# Procedure text: Radioligand Binding Assay I : For crude cell membrane preparations, cells (CHO, Chinese hamster ovary or HEK, human embryonic kidney) expressing human orexin 1 or human orexin 2 receptors, were washed with HEPES (10 mM, pH 7.5), scraped off the culture plates with the same buffer, and centrifuged at 4 C for 5 min at 2500 x g. The cell pellet was either stored at -80 C or used directly. Before the experiments, cell membranes were re-suspended in binding assay buffer (10 mM HEPES, 0.5% (w/v) bovine serum albumin, pH 7.5) by homogenisation with a Polytron homogeniser at 50 Hz for 20 s. In competition experiments, cell homogenates (150μΙ) were incubated in assay buffer (10 mM HEPES, pH 7.5, 0.5 % (w/v) bovine serum albumin, 5 mM MgCI2, 1 mMCaCI2, and tween 0.05%) for 1 h at room temperature with about 100 pM of the radioligand ([125l]orexin A, 2100 Ci/mmole, 50 μΙ), and with various concentrations of compounds of the invention (50 μΙ) in triplicates.
Quantity name: Kd (nM)
# output: bare number, implied unit nM

Exercise: I would be grateful if you could share the reported Kd for `C[C@H](NC(=O)COc1cc(C(F)(F)F)c2c(-c3cccc(Cl)c3)nn(C)c2n1)c1ccccc1` .
Key: 114

Origin of the recorded values: ChEMBL document CHEMBL3638641
